These data points were gathered from ChEMBL document CHEMBL3988442.

# System: Plasmodium falciparum
# Method notes: Calibr Malaria Delayed Death Assay SOP
# Assay type: functional, organism-based
# Set-up: scale not given: in the data most compounds retested in dose-response had high values
# Condition: concentration 4.99e-06 (unit not given; other assays of the set use mol/L)
Among all 38,000 compounds or so, about 1,200 (3.2%) showed an effect of 50% or more. The median lay at about -58%. The sample holds strong results, similar compounds and a random draw of the others, so the mix is not that of the screen.
For each record, write down the corresponding Percent Effect.
Numbers only, in %.

NS(=O)(=O)c1ccc(NCc2ccccc2F)cc1C(F)(F)F; -7.015
c1ccc(-n2cnnc2CCCN2CCOCC2)cc1; -26.23
O=C1CCCN1c1cccc(CNCc2cc(F)ccc2F)c1; -68.04
NCC1(c2cccc(C(F)(F)F)c2)CCCCC1; -1.273
CS(=O)(=O)Cc1ccccc1NCc1cc(Cl)ccc1Cl; -167.2
Cc1ccccc1C1(CN)CCOCC1; 37.02
Oc1ccc(Cl)cc1CNCc1ccccc1Cl; 75.8
CO[C@H]1CCN(c2ncccn2)[C@H]1Cc1ccccc1; -101.2
CCCC(=O)N1CCc2c(CNS(C)(=O)=O)cncc2C1.Cl; -54.25
CC(=O)N1CCC(NC(=O)c2cc(Cl)ccc2O)CC1; -71.2

Provide each entry's Percent Effect from the list below.
1. CO[C@H]1CCN(Cc2nccs2)C[C@@H]1Cc1ccccc1
2. Cc1ccccc1C1(CN)CCCCC1
3. Oc1ccc(Cl)cc1CNCc1ccccc1C(F)(F)F

1: -31.89; 2: 91.14; 3: 63.6

###

# Test system: Plasmodium falciparum
# Method notes: Calibr Malaria Delayed Death Assay SOP
# Format: functional, organism-based
# Parameters: scale not given: in the data most compounds retested in dose-response had high values
# Condition: concentration 4.99e-06 (unit not given; other assays of the set use mol/L)
Screen size: about 38,000 compounds; about 1,200 (3.2%) showed an effect of 50% or more. The median lay at about -58%. This excerpt belongs to a sample that is enriched for strong results.
For each entry below, report its Percent Effect value.

Cc1ccccc1CC1(C(=O)O)CCCN(c2ncnc3[nH]ccc23)C1 (stereo not drawn); -4.529%

For every listed record, write down its Percent Effect.
1. COc1ccc(F)c(CN2CCCC(O)(CNCC(C)(C)C)C2=O)c1 (stereo not drawn)
2. Cc1cc(N2CCC(c3ncc[nH]3)CC2)c2ccccc2n1
3. Cc1oncc1C(=O)NCC1(O)CCc2ccccc2C1 (stereo not drawn)
4. Cc1cc(C(=O)N2CCn3cc(CN4CCCCC4)nc3C2)no1
5. CNc1nc2c(s1)C(c1cccc(F)c1F)CC(=O)N2 (stereo not drawn)
6. CCN(C)C(=O)c1cccc(C(=O)N(C)Cc2cccc(O)c2)c1
7. Cc1cc(N2CCC(c3ncc[nH]3)CC2)nc(N)n1
8. NC(=O)c1ccc(CN2CCC(N3CCCC3)CC2)cc1

1. 48.73%
2. 61.5%
3. -85.49%
4. -18.56%
5. -75.94%
6. -54.27%
7. -29.26%
8. -126.8%

###

Give measured Percent Effect for each item. Keep answers brief.
# Test system: Plasmodium falciparum
# Method notes: Calibr Malaria Delayed Death Assay SOP
# Assay type: functional, organism-based
# Parameters: scale not given: in the data most compounds retested in dose-response had high values
# Condition: concentration 4.99e-06 (unit not given; other assays of the set use mol/L)
About 1,200 (3.2%) of roughly 38,000 compounds showed an effect of 50% or more. The median lay at about -58%. Only a selection was taken, and strong results are over-represented in it overall.
Numbers only, in %.

Worked cases, answers included:
CS(=O)(=O)NC(=O)c1ccn(-c2ccc(Cl)c(Cl)c2)n1; -100.9
O=C(Cc1c[nH]c2ncccc12)NCC(O)c1ccsc1 (centres undefined); -112.4
O=C(NCCCn1cccn1)C1(c2cccc(Cl)c2)CC1; -36.51
CC(C)c1nc(CNC2CCCN(c3cccnn3)C2)no1 (centres undefined); -23.44
O=c1cc(Cn2ccnc2)nc2n1CCCN(Cc1ccncc1)C2; -42.89

// batch mode: one Percent Effect value per listed entry
1. CC(CNC(=O)c1cc(C2CC2)nc2c1cnn2C)Cn1cccn1 (centres undefined)
2. CNS(=O)(=O)CC(=O)N(Cc1c(F)cccc1Cl)C1CC1
3. O=S(=O)(C1CC1)N1CC[C@H](OCC2CC2)[C@@H]1Cc1ccncc1
4. O=c1c(CN2CCCCCC2)coc(O)c1CN1CCCCCC1
5. CCOc1ccnc(N2CCCN(c3nc(C4CC4)ns3)CC2)n1

1. -106.1
2. -68.94
3. -74.15
4. 53.69
5. 50.17

State recorded Percent Effect for all listed molecules.
1. CN(C)[C@@H]1CCN(C(=O)c2ccccn2)[C@H]1Cc1ccncc1
2. Cc1nc(CNC2CCCN(c3cccnn3)C2)no1 (centres undefined)
3. CCOc1ccnc(N2CCCN(c3nc(CC)ns3)CC2)n1
4. Cc1ccnc(CC(C)N(C)c2cc(C3CCNCC3)nc(C)n2)c1 (centres undefined)
5. Cc1cnn(C2CN(CC(=O)NCc3ccccn3)C2)c1
6. O=S(=O)(NCC(c1ccsc1)N1CCCCCC1)c1cccs1 (centres undefined)

1. -71
2. -95.1
3. -65.97
4. -104.4
5. -188.5
6. 84.95

For each of the molecules below, note its Percent Effect.
1. O=C(c1cc(C2CC2)no1)N1C[C@H]2CC[C@@H]1CN(Cc1ccccn1)C2
2. O=C(O)C(F)(F)F.O=C(O)C(F)(F)F.O=C(c1cccnc1)N1CCN2C[C@H](OCc3ccccc3)C[C@H]2C1
3. CC(=O)Nc1cccc2c1ccn2CC(=O)Nc1n[nH]c(CC(C)C)n1
4. CN(Cc1cc2cc(F)ccc2[nH]1)c1cc(C2CCCNC2)ncn1 (centres undefined)
5. O=C1NC(c2ccccc2)=N[C@@]12CC[C@@H]1CN(Cc3ccco3)C[C@@H]12
6. CC(CNS(=O)(=O)CCCC#N)c1ccsc1 (centres undefined)
7. COc1ccc(NCC(=O)NCC(=O)N2CCCC2)c(C(F)(F)F)c1
8. O=c1c(CN2CCSCC2)coc(O)c1CN1CCCC1

1: 5.083; 2: -25.13; 3: -107.2; 4: 83.71; 5: 17.95; 6: -35.87; 7: -93.16; 8: -11.49

Dear colleague, could you please provide Percent Effect for the molecules listed below?
1. CN(C)[C@@H]1CCN(S(C)(=O)=O)[C@H]1Cc1ccccc1
2. O=C1NC(c2ccccc2)=N[C@@]12CC[C@@H]1CN(Cc3ccncc3)C[C@@H]12
3. Cc1nc(C2CCNCC2)cc(N(C)Cc2cc3cc(F)ccc3[nH]2)n1
4. CCC(CO)N(Cc1cccs1)C(=O)CNS(=O)(=O)c1cccs1 (centres undefined)
5. Cc1nc(CCN)cc(N(C)Cc2nc3ccc(F)cc3[nH]2)n1
6. Cc1nc(NCc2coc(-c3ccccc3)n2)cc(C2CCNCC2)n1
7. CN(C)[C@@H]1CCN(S(=O)(=O)c2cn(C)cn2)[C@H]1Cc1cccnc1.O=C(O)C(F)(F)F.O=C(O)C(F)(F)F.O=C(O)C(F)(F)F

1. 16.37
2. 12.66
3. 75.18
4. -105.8
5. -113.9
6. -7.041
7. -62.43

// batch mode: one Percent Effect value per listed entry
1. O=c1ncn(-c2ccc(F)cc2)c2ncccc12
2. CN(Cc1cc2cc(F)ccc2[nH]1)C(=O)C1CC(=O)N(C2CCCC2)C1 (centres undefined)
3. Cc1nc(C2CCNCC2)cc(N(C)CCc2cn[nH]c2)n1

1: -138.9; 2: 12.79; 3: -114.3

Please supply Percent Effect for each of the following items, keeping them in order.
1. O=C(C1CCCO1)N1CCC2(CC1)COCCN(Cc1cccnc1)C2.O=C(O)C(F)(F)F.O=C(O)C(F)(F)F (centres undefined)
2. O=C(C1CCCN1Cc1nc(-c2ccco2)no1)N1CCSCC1 (centres undefined)
3. CCN1CCN(C2CCN(CCOc3ccc(F)cc3)CC2)C1=O
4. O=c1c(CN2CCCCCC2)coc(O)c1CN1CCOCC1

[-101.1, -120.3, -7.395, -41.33]

For each of the molecules below, note its Percent Effect.
1. Cc1nsc(N2CCCN(c3nc(C4CC4)ns3)CC2)n1
2. CC(C)N(C)[C@@H]1CCN(Cc2ccoc2)[C@H]1Cc1ccccc1
3. CC(C)c1cc(C(=O)N2C[C@H]3CC[C@@H]2CN(Cc2ccccn2)C3)no1

[-111.5, 9.124, -200.1]

Please give Percent Effect for each item listed below.
1. CCC(CO)NCc1ccc(-c2ccc(Br)cc2)o1.Cl (centres undefined)
2. CC(C)(C)c1nc(CNC2CCCN(c3cccnn3)C2)no1 (centres undefined)
3. O=C(NCCc1nccs1)N1CCC(n2cccc2)CC1

1: 45.11; 2: 82.54; 3: -128.4
